# subjectOfTest: UniProtKB Q06187
# Sequence (Q06187 402-655 limits assumed): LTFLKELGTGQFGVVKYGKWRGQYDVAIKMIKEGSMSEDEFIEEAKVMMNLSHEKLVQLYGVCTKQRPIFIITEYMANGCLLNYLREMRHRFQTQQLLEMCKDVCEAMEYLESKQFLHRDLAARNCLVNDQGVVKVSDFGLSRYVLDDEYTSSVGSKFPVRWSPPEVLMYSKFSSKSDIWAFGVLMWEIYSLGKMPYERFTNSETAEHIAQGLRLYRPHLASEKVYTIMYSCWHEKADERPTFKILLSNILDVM
# experimentalDetails: biochemical
# conditionInfo: read-out: BTK inhibition (%), 0.75 uM BTK, […] probe 3l, 15 min preincubation
Assign inhibition at 10 µM to each entry below.
Give bare numbers, in %.

INSERT INTO assay_data (compound, valuemeasured) VALUES
  ('C=C1[C@H](OC(=O)/C=C(\C)CC)C[C@@H](C(C)C)[C@@H]2[C@@H]([C@@H](C)OC(C)=O)C(=O)C[C@@H]12 [PCM-0216448]', -9.3),
  ('CC(C)(O)[C@@H]1CC[C@](C)([C@H]2[C@@H](O)C[C@@]3(C)[C@@H]4C[C@H](O)[C@H]5C(C)(C)[C@@H](O)CC[C@@]56C[C@@]46CC[C@]23C)O1 [PCM-0215101]', -6.9);

Input line: Recorded inhibition at 10 µM for CC(C)OC(=O)CCC/C=C\C[C@@H]1[C@@H](/C=C/[C@@H](O)COc2cccc(C(F)(F)F)c2)[C@H](O)C[C@@H]1O [PCM-0215893] with UniProtKB Q06187, please?
Output line: -28
